Target: UniProt Q07343
Sequence (Q07343 whole entry): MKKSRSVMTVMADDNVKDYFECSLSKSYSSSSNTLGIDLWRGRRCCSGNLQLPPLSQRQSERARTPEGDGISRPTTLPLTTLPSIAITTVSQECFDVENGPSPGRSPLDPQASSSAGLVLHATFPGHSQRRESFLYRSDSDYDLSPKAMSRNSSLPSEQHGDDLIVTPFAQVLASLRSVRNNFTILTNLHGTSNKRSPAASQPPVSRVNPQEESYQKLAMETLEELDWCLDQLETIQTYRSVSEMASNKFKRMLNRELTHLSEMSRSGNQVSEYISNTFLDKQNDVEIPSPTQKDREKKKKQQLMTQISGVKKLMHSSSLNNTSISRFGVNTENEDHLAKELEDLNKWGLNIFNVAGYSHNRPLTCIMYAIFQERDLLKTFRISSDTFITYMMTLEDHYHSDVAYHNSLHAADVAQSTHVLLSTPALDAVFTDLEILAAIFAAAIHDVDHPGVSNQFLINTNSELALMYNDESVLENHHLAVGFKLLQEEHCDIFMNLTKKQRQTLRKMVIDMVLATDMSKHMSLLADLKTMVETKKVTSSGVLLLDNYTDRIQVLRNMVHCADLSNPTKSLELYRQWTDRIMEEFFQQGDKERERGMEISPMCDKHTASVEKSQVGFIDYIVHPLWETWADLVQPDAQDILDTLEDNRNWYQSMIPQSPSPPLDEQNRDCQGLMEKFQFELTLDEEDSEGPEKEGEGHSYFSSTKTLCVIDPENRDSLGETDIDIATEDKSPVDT
observedProperty: IC50 (nM)
Report as a plain number; the unit nM is understood.

# IC50 measured on UniProt Q07343 for item CC(C)c1cc(C(C)C)c(S(=O)(=O)Nc2cccc(NS(=O)(=O)c3cccc4cccnc34)c2)c(C(C)C)c1 = 940

Source: ChEMBL document CHEMBL5137038
